Just for reference, patent US20180291110A1 is where these values come from.

Answer each item with its documented koff.
molecular target: T1, human transferrin receptor (recombinant, for surface plasmon resonance) (human, UniProt P02786 89-760); test: SPR 25C
T1 construct: also called huTfR; human transferrin receptor-biotinylated
T1 sequence (P02786 89-760 limits assumed): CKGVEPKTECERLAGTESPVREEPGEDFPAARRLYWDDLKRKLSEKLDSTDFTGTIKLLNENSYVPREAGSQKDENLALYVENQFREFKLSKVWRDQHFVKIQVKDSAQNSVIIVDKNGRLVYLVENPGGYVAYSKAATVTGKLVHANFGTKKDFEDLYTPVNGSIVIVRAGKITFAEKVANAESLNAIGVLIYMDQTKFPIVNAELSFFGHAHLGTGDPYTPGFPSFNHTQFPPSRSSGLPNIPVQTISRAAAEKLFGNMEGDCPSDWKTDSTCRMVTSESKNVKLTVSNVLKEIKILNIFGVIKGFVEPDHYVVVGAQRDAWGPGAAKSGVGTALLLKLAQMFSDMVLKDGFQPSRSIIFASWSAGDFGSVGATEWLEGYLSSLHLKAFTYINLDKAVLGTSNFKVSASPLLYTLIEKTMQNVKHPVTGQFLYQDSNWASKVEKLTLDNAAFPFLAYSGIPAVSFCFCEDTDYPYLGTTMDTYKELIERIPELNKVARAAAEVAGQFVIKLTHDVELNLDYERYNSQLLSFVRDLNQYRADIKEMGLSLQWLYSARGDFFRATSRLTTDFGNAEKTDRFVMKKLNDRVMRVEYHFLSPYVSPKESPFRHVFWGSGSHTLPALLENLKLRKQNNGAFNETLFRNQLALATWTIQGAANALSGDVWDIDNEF
Answer with a number only, understood to be in s⁻¹.

Exercise: Query (binder): 2/99 VH13/VL12 (antibody, V domains shown) VH: QVQLQESGPGLVKPSETLSLTCTVSGFSLSSYAMSWIRQPPGKGLEWIGYIWSGGSTDYNPSLKSRVTISVDTSKNQVSLKLSSVTAADTAVYYCARRYGTSYPDYGDANGFDPWGQGTLVTVSS VL: DIQMTQSPSSLSASVGDRVTITCRASQSISSYLAWYQQKPGKAPKLLIYRASTLASGVPSRFSGSRSGTDFTLTISSLQPEDFATYYCQQHYSSSNVDNTFGGGTKVEIK ; field requested: koff
Solution: 0.00785

Exercise: Query (binder): 2/99 VH12/VL15 (antibody, V domains shown) VH: QVQLQESGPGLVKPSETLSLTCTVSGFSLSSYAMSWIRQPPGKGLEWIGYIWSGGSTDYNPSLKSRVTISVDTSKNQFSLKLSSVTAADTAVYYCARRYGTSYPDYGDANGFDPWGQGTLVTVSS VL: DIVMTQSPDSLAVSLGERATINCKSSQSISSYLIWYQQKPGQPPKLLIYRASTLASGVPDRFSGSGSGTDFTLTISSLQAEDVAVYYCQQAYSSSNVDNTFGGGTKVEIK ; field requested: koff
Solution: 0.00776

Exercise: Query (binder): 2/99 VH15/VL6 (antibody, V domains shown) VH: QQLQESGPGLVKPSETLSLTCTVSGFSLSSYAMSWVRQPPGKGLEWIGYIWSGGSTDYNPSLKSRVTISVDTSKNQVSLKLSSVTAADTAVYYCARRYGTSYPDYGDANGFDPWGQGTLVTVSS VL: AIQLTQSPSSLSASVGDRVTITCRASQSISSYLSWYQQKPGKAPKLLIYRASTLASGVPSRFSGSGSGTDFTLTISSLQPEDFATYYCQQSYSSSNVDNTFGGGTKVEIK ; field requested: koff
Solution: 0.0035

Exercise: Query (binder): 2/99 VH6/VL14 (antibody, V domains shown) VH: QQLVETGGGLIQPGGSLRLSCAASGFSLSSYAMSWVRQAPGKGLEWIGYIWSGGSTDYADSVKGRFTISRDNSKNTLYLQMNSLRAEDTAVYYCARRYGTSYPDYGDANGFDPWGQGTLVTVSS VL: DIVMTQSPDSLAVSLGERATINCKSSQSISSYLSWYQQKPGQRPKLLIYRASTLASGVPDRFSGSGSGTDFTLTISSLQAEDVAVYYCQQSYSSSNVDNTFGGGTKVEIK ; field requested: koff
Solution: 0.0022

Exercise: Query (binder): 2/99 VH1/VL17 (antibody, V domains shown) VH: VQLVETGGGLIQPGGSLRLSCAASGFSLSSYAMSWVRQAPGKGLEWVGYIWSGGSTDYADSVKGRFTISRDNSKNTLYLQMNSLRAEDTAVYYCARRYGTSYPDYGDANGFDPWGQGTLVTVSS VL: AIQLTQSPSSLSASVGDRVTITCRASQSISSYLAWYQQKPGKAPKLLIYRASTLASGVPSRFSGSGSGTDFTLTISSLQPEDFATYYCQQTYSSSNVDNTFGGGTKVEIK ; field requested: koff
Solution: 0.00756

Exercise: Query (binder): 2/99 VH12/VL17 (antibody, V domains shown) VH: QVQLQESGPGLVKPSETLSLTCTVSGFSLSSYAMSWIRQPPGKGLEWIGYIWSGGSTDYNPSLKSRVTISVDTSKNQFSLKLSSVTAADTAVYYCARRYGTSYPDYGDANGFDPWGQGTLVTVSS VL: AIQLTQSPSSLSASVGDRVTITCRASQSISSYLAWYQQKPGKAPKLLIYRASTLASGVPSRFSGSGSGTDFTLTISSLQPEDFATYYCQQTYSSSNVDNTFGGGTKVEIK ; field requested: koff
Solution: 0.00727

Exercise: Query (binder): 2/99 VH22/VL12 (antibody, V domains shown) VH: QSMQESGPGLVKPSQTLSLTCTVSGFSLSSYAMSWVRQHPGKGLEWIGYIWSGGSTDYASWAKSRVTISVDTSKNQVSLKLSSVTAADTAVYYCARRYGTSYPDYGDANGFDPWGQGTLVTVSS VL: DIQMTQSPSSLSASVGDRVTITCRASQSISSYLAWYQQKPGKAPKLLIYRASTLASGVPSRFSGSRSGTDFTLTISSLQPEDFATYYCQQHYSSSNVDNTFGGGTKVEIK ; field requested: koff
Solution: 0.00644

Exercise: Query (binder): 2/99 VH13/VL14 (antibody, V domains shown) VH: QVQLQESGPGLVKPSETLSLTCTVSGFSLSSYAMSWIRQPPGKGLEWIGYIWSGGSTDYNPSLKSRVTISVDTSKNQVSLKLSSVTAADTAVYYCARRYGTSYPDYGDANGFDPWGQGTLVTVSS VL: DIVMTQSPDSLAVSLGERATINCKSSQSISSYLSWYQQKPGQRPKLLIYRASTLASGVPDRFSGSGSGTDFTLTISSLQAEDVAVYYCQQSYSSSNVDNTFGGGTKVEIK ; field requested: koff
Solution: 0.00222

Exercise: Query (binder): 2/99 VH7/VL14 (antibody, V domains shown) VH: QQLVETGGGLIQPGGSLRLSCAASGFSLSSYAMSWVRQAPGKGLEWIGYIWSGGSTDYASWAKGRFTISRDNSKNTLYLQMNSLRAEDTAVYYCARRYGTSYPDYGDANGFDPWGQGTLVTVSS VL: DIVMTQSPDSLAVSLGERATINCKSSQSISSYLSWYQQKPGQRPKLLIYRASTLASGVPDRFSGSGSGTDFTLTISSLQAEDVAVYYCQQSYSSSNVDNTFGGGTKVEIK ; field requested: koff
Solution: 0.00153

Exercise: Query (binder): 2/99 VH6/VL1 (antibody, V domains shown) VH: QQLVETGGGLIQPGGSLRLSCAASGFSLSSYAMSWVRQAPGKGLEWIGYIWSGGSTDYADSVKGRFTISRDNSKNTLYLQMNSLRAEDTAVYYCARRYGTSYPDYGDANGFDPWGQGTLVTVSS VL: DIQMTQSPSSLSASVGDRVTITCRASQSISSYLNWYQQKPGKAPKLLIYRASSLQSGVPSRFSGSGSGTDFTLTISSLQPEDFATYYCQQSYSSSNVDNTFGGGTKVEIK ; field requested: koff
Solution: 0.001
